Origin of the recorded values: ChEMBL document CHEMBL3988442

# Test system: Trypanosoma cruzi
# protocolText: Trypanosoma cruzi phosphomannomutase and mannose-1-phosphate guanylyltransferase assay
# Assay type: functional
# Set-up: scale not given: direction of the effect not stated beside the values
# particulars: 10 µM
attributeMeasured: Percent Effect (%)
Numbers only, in %.

Some entries whose results are on file:
compound	attributeMeasured	result
CCCc1cc(C(=O)N2CCCC(n3ccnc3C)C2)[nH]n1 (stereo unspecified)	Percent Effect	3.87
CC(C)c1nc(CN2CCCN(Cc3nnc(C4CC4)o3)CC2)no1	Percent Effect	-0.602
Cn1cnnc1S(=O)(=O)C1CCN(S(=O)(=O)C2CC2)CC1	Percent Effect	-3.72
Cc1ccc(-c2nnc(CN3CCOC(Cn4cccn4)C3)o2)cc1 (stereo unspecified)	Percent Effect	0.661
CN1CC(c2ccccc2)CC12CCN(C(=O)c1c(Cl)cnn1C)CC2 (stereo unspecified)	Percent Effect	8.05
Cc1nc(C)c(CC(=O)Nc2ncc(C)s2)c(=O)[nH]1	Percent Effect	1.5
Cn1ccc(C(=O)N2CCN(CCc3ccccc3)CC2)cc1=O	Percent Effect	-1.74
Cc1cc(C)c(OCC(=O)NS(=O)(=O)c2c(C)noc2C)c(C)c1	Percent Effect	5.54

Items follow; give Percent Effect for each.
1. CCc1nc(C2CCCN2CC(=O)Nc2c(C)n[nH]c2C)no1 (stereo unspecified)
2. Cc1n[nH]c(C2CN(C(=O)Cn3ccccc3=O)CCO2)n1 (stereo unspecified)
3. COCCN1C[C@@H](C)[C@@]2(COCCN(C(=O)c3cnc(C)cn3)C2)C1

Solution:
[-5.62, -1.13, -3.28]

---

# systemTested: Proteasome subunit beta (Trypanosoma cruzi) (UniProt O96673)
# Sequence (O96673 as listed by the source): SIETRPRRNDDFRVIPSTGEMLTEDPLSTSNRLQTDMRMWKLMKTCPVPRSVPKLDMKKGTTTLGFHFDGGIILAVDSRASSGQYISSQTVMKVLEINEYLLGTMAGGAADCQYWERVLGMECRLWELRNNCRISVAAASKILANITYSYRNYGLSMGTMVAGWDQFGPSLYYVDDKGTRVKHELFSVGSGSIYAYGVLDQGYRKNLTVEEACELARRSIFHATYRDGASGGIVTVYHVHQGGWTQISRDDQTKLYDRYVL
# protocolText: Trypanosoma cruzi proteasome chymotrypsin-like activity (TcProtChymo) assay. Also: in the data most compounds retested in dose-response had high values.
# Type: functional
# Design: scale not given: direction of the effect not stated beside the values
# particulars: 9.37 µM
I'd be grateful if you could share measured Percent Effect for these entries.
Give bare numbers, in %.

Example compounds with recorded Percent Effect:
compound	systemTested	valueUnit	result
COCCOc1ncccc1CNCc1c(C)nn(C)c1N(C)C	Proteasome subunit beta (Trypanosoma cruzi) (UniProt O96673)	%	0.721
CN1CCC(NC(=O)NCCNc2ccccn2)CC1	Proteasome subunit beta (Trypanosoma cruzi) (UniProt O96673)	%	16.5
CCN(Cc1cccc2c1OCO2)C(=O)C(C)c1cccnc1 (stereo unspecified)	Proteasome subunit beta (Trypanosoma cruzi) (UniProt O96673)	%	-0.702
O=C(C[C@@H]1COC[C@H]2CN(Cc3ccncc3)C[C@@H]12)N1CCOCC1	Proteasome subunit beta (Trypanosoma cruzi) (UniProt O96673)	%	10.5

For each of the items listed, what is its Percent Effect?
1. CCNc1nc2c(s1)C(=O)CN(C(=O)NCCc1ccccc1)C2
2. Cc1ccc(N2CC[C@H]3C[C@@H](C(=O)N4CCOCC4)O[C@H]3C2)nn1

Solution:
1. -1.95
2. 11.6

---

# systemTested: Ubiquitin-activating enzyme e1, putative (Leishmania donovani (strain BPK282A1))
# protocolText: Leishmania donovani Ubiquitin Activating Enzyme (LdE1)
# Type: functional
# Set-up: scale not given: direction of the effect not stated beside the values
# particulars: 30 µM
Potency and affinity values are given separately.
attributeMeasured: Percent Effect (%)
Answers are plain numbers, in %.

Sample answers from the record:
compound	systemTested	Percent Effect (%)
Cn1cc(CNCCn2cccn2)c(-c2cccnc2)n1	Ubiquitin-activating enzyme e1, putative (Leishmania donovani (strain BPK282A1))	0
CCn1nc(C)c2ncnc(NCCCN3CCOCC3)c21	Ubiquitin-activating enzyme e1, putative (Leishmania donovani (strain BPK282A1))	9.33
CN1C(=O)C[C@@H]2[C@@H]1CCN2C(=O)c1ccc[nH]1	Ubiquitin-activating enzyme e1, putative (Leishmania donovani (strain BPK282A1))	-2.74

Parameter requested: Percent Effect. Apply to each item below.
1. Cn1cnc2c1C(COCC1CC1)CN(Cc1ccsc1)C2 (centres undefined)
2. Cc1cnn(C(C)C2CC2)c1NC(=O)c1cnccn1 (centres undefined)
3. c1cnc(-c2nc(CNCCn3cccn3)cs2)nc1
4. CNc1cc2c(nn1)CCN(C(=O)C1CCCc3ccccc31)C2 (centres undefined)
5. CC(C)CN1C(=O)C2(CCN(Cc3nccs3)C2)c2ccccc21 (centres undefined)
6. O=C1CC(c2ccncc2)C2(CCN(C(=O)c3ccc[nH]3)CC2)N1 (centres undefined)
7. CNc1cc(CCNC(=O)c2cccnc2)nc(-c2ccncc2)n1

Solution:
1: 13; 2: 0; 3: -2.63; 4: 7.59; 5: 5.41; 6: 18.9; 7: 9.46

Batch of 6 compounds: report Percent Effect for each.
1. c1ccc2oc(N3CCCCC3Cn3cncn3)nc2c1 (centres undefined)
2. COCc1cccc(NS(=O)(=O)c2cc(C(=O)O)cs2)c1
3. CCOCC(O)CN1CCN(C(=O)C2CC2)CC1 (centres undefined)
4. CCOc1ccc(Cl)c(C(=O)N(C)C)n1
5. Cc1cc(CN2CC[C@H]3C[C@H](C(=O)N4CCC(C)CC4)O[C@H]3C2)no1
6. Cc1cnc(C(=O)N(CCN(C)C)Cc2ccc(Cl)cc2)cn1

Solution:
[18.9, 5.13, 16.2, 15.4, 10.8, 20.8]

Each of the following entries comes with a recorded value; kindly state Percent Effect for each.
1. O=C(C1CC=CC1)N1CCC2(CC1)CN(Cc1ccccn1)CCO2
2. COCc1nn(C(C)C)c2c1CCN(Cc1cccs1)C2

Solution:
1.3
11

Provide the reported Percent Effect of each entry below, same order.
1. CC(C)CC(CNC(=O)NCc1cc[nH]n1)N1CCOCC1 (centres undefined)
2. Cc1nn(C(C)C)c(C)c1NC(=O)c1ccccc1
3. CCN(Cc1cccc2c1OCO2)C(=O)C(C)c1cccnc1 (centres undefined)
4. Cc1cncc(C2CCCN(C(=O)c3ccc(C)[nH]c3=O)C2)n1 (centres undefined)
5. Cc1ccc(-c2noc(CN3CCOC(CN(C)C)C3)n2)cc1F (centres undefined)
6. COCC(=O)N1Cc2cnc(Cc3ccc(OC)cc3)nc2C1

Solution:
[17.9, 2.74, 7.79, 20, -8.11, 5.48]

Report Percent Effect for each item below.
1. COCCO[C@H]1CCN(C(=O)c2ccc[nH]2)[C@H]1Cc1ccncc1
2. O=C(c1ccoc1)N1CCC2(CC1)C(=O)Nc1ccccc12

Solution:
1: 0; 2: 16.2

State the recorded Percent Effect for every item in the following list.
1. CC1=N[C@@]2(CC[C@@H]3CN(CC(=O)N(C)C)C[C@@H]32)C(=O)N1CC(C)C
2. CN(CCNC(=O)N1CCN(Cc2ccon2)CC1)C1CCCC1
3. CSc1nccn1-c1cccc(C(=O)NCc2nnc(C)n2C)c1
4. CCOc1cc(C(=O)N2CCCC(n3cncn3)C2)ccc1C (centres undefined)

Solution:
[12, 2.67, 13.2, -8.11]

Answer for every listed entry: what is its Percent Effect? The entries follow.
1. CC(=O)N1CCC2(CCCN(C(=O)c3ccccc3)C2)C1 (centres undefined)
2. CC(C)(C)NC(=O)C1CSCN1S(=O)(=O)c1ccc(F)cc1 (centres undefined)

Solution:
1. 0
2. 6.33

Record Percent Effect for all entries; do not skip any.
1. CCOCCCNC(=O)c1ccccc1S(C)(=O)=O
2. CCCNC(=O)CNc1cc(C(=O)N2CCSCC2)ccc1C
3. Cn1ccc(C(=O)NCc2ccc(N3CCCC3)nc2)cc1=O
4. Cc1nc(C)n(C2CCCN(C(=O)c3ccc(F)cc3F)C2)n1 (centres undefined)
5. CCc1ccc(CN2CCC3(CC2)CC(N2CCN(C)CC2)CO3)cc1 (centres undefined)

Solution:
1: 0; 2: 5.48; 3: 8; 4: 0; 5: 0
